meta.source: PubChem BioAssay AID2732

- ASSAY NOTES: blockers of ER-stress CHOP reporter expression – cell-based, unfolded protein response, luciferase reporter, primary screen (AID 2732);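 also: 0% = tunicamycin plus vehicle and 100% = wells without tunicamycin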
- PARTICULARS: CHO-K1 CHOP-promoter luciferase, tunicamycin-induced, 15-18 h; at 10 µM; active compounds read high
Hit rate of the full screen: of about 220,000 compounds, about 8,200 (3.7%) were called active. Shown is part of a subset that was picked to be rich in actives.
METRIC NAME: inhibition (%)
# output: bare number, implied unit %

// solved cases for inhibition follow
>  <COMPOUND>
O=C(C(Cc1ccccc1)n1cccc1)N1CCN(C2CCCCC2)CC1 (centres undefined)

>  <inhibition (%)>
72.6

$$$$
>  <COMPOUND>
O=C(CN1CCCCCC1)Nc1ccc(Br)cc1Br

>  <inhibition (%)>
84.9

$$$$
>  <COMPOUND>
CCOC(=O)N1CCN(C(=O)c2ccc3c(c2)N(Cc2ccc(C)cc2)CCS3)CC1

>  <inhibition (%)>
76.8

$$$$
>  <COMPOUND>
CC(=O)Nc1ccc(/C=N/NC(=O)c2cccs2)cc1

>  <inhibition (%)>
-21.6

$$$$
>  <COMPOUND>
CN(c1ccccc1)S(=O)(=O)c1ccc(Cl)c(C(=O)OCC(=O)NCc2ccco2)c1

>  <inhibition (%)>
29.9

$$$$
>  <COMPOUND>
CC(C)(C)n1cnnc1Sc1ccc([N+](=O)[O-])cn1

>  <inhibition (%)>
12.9

$$$$
>  <COMPOUND>
O=C(CSc1nnc(SCc2ccc(F)cc2)s1)Nc1ccc(C(=O)O)cc1

>  <inhibition (%)>
-8.93

$$$$
>  <COMPOUND>
Cc1cccc(N(CC(=O)N=Nc2c(O)[nH]c3ccccc23)S(C)(=O)=O)c1C

>  <inhibition (%)>
27

$$$$

# ---- query compound ----
I'd like to know its inhibition. The compound in question is CC1CC(=O)Nc2ccccc2N1S(=O)(=O)c1cccs1 (centres undefined) 4.64
